# Method Summary: photoluminescence quantum yield (fraction); solvent given as SMILES
# Setup Conditions: in CN(C)C=O
# Yes = photoluminescence quantum yield below 0.5 (exclusive); No = photoluminescence quantum yield at/above 0.5

Look over these answered cases.
C=CCNS(=O)(=O)c1ccc2c(c1)C(=O)/C(=C1\Sc3ccc(S(=O)(=O)NCC=C)cc3C1=O)S2 ... Yes
CCCCCCN(c1ccccc1)c1ccc2c(c1)C(CC)(CC)c1cc(/C=C/c3ccc(/C=C(\C#N)C(=O)O)s3)ccc1-2 ... No
O=C(O)c1ccc(C(=O)O)c2cc3ccccc3cc12 ... Yes

*Q* Is photoluminescence quantum yield of O=S(=O)(c1ccc(-c2ccc(-c3nc4c5ccccc5c5ccccc5c4n3-c3ccccc3)cc2)cc1)c1ccc(-c2ccc(-c3nc4c5ccccc5c5ccccc5c4n3-c3ccccc3)cc2)cc1 strictly below 0.5?
*A* No

*Q* Is photoluminescence quantum yield of CC1=CC(C)=[N+]2C1=C(c1c3ccccc3cc3ccccc13)c1c(C)cc(C)n1[B-]2(F)F strictly below 0.5?
*A* Yes

*Q* Is photoluminescence quantum yield of Cc1ccc2nc(-c3cccc4nc(C)[nH]c(=O)c34)[nH]c2c1 strictly below 0.5?
*A* Yes

*Q* Is photoluminescence quantum yield of CCN(CC)c1ccc(-c2nc(Oc3ccc(-c4nc5ccccc5[nH]4)cc3)nc(Oc3ccc(-c4nc5ccccc5[nH]4)cc3)n2)cc1 strictly below 0.5?
*A* Yes

*Q* Is photoluminescence quantum yield of N#Cc1cccc2c(N)c(-c3nn([C@H]4C[C@H](O)[C@@H](CO)O4)c4ncnc(N)c34)ccc12 strictly below 0.5?
*A* Yes

*Q* Is photoluminescence quantum yield of c1ccc(N(c2ccccc2)c2ccc3c(ccc4nc5ccc6cc(N(c7ccccc7)c7ccccc7)ccc6c5nc43)c2)cc1 strictly below 0.5?
*A* Yes

*Q* Is photoluminescence quantum yield of CCN(CC)c1ccc2ccc(=O)oc2c1 strictly below 0.5?
*A* No

*Q* Is photoluminescence quantum yield of CCCCCCCCC1(CCCCCCCC)c2cc(-c3ccc(C(F)(F)F)cc3)ccc2-c2ccc(N(c3ccc(-n4c5ccccc5c5ccccc54)cc3)c3ccc4c(c3)C(CCCCCCCC)(CCCCCCCC)c3cc(-c5ccc(C(F)(F)F)cc5)ccc3-4)cc21 strictly below 0.5?
*A* No

*Q* Is photoluminescence quantum yield of CC1(C)Oc2c(c3nc4ccccc4nc3c3ccccc23)CC1Br (configuration not stated) strictly below 0.5?
*A* Yes

*Q* Is photoluminescence quantum yield of CSc1cc(-c2cc3cc4c5c(c3oc2=O)CCCN5CCC4)oc(=O)c1C#N strictly below 0.5?
*A* Yes

*Q* Is photoluminescence quantum yield of Fc1ccc(-c2cc3c4c(c2)CCc2cc(-c5ccc(F)cc5)cc(c2-4)CC3)cc1 strictly below 0.5?
*A* No

====

# Method Summary: photoluminescence quantum yield (fraction); solvent given as SMILES
# Setup Conditions: in CN(C)C=O
# met = photoluminescence quantum yield below 0.4 (exclusive); not met = photoluminescence quantum yield at/above 0.4

Look over these answered cases.
CCCCCCCCCCOc1ccc2c3c(oc2c1)C1=C2C(=O)N4C=Cc5c(oc6cc(OCCCCCCCCCC)ccc56)C4=C2C(=O)N1C=C3 ... not met
CN(C)c1ccc(C2=Cc3cccc[n+]3[B-](F)(F)O2)cc1 ... met
CCN(CC)c1ccc2cc(/C=C/C(=C(C#N)C#N)c3ccc4c(c3)c3ccccc3n4CC)c(=O)oc2c1 ... met
COCCOCCOCCOCCOc1cc(C=O)c(OCCOCCOCCOCCOC)cc1C=O ... met
NS(=O)(=O)c1ccc(N2N=C(c3ccc(O)cc3)CC2c2ccccc2)cc1 (centres undefined) ... not met

As a next step, examine the compound that follows.
*Q* Is photoluminescence quantum yield of CN(c1ccccc1)c1ccc(/C=C2\C(=O)c3ccccc3S2(=O)=O)cc1 strictly below 0.4?
*A* met
